Reported pIC50 for target or system factor Xa (Homo sapiens), by entry.
pIC50: −log10 of the molar value. Where a name gives a salt, the structure may show the parent alone.

| molecule | relationQualifier | pIC50 |
| --- | --- | --- |
| COc1ccccc1N1CCN(C(=O)CNC(=O)CNc2cccc(C(=N)N)c2)CC1 [Example 24, hydrochloride] | = | 5.80 |
| COC(=O)c1ccc(C(NCc2ccc(C(=N)N)cc2)C(=O)NC(C(=O)NCCc2c[nH]c3ccccc23)C(C)C)cc1 (centres unmarked) [Example 7, hydrochloride] | < | 3.96 |
| N=C(N)c1ccc(CNC(C(=O)NCC(=O)NCc2cccnc2)c2ccc[nH]2)cc1 (centres unmarked) [Example 22, hydrochloride] | = | 4.82 |
| N=C(N)c1cccc(NC(CO)C(=O)NCC(=O)NCCc2c[nH]c3ccccc23)c1 (centres unmarked) [Example 8, hydrochloride] | = | 5.11 |
| CC(C)C(NC(=O)C(CO)Nc1cccc(C(=N)N)c1)C(=O)NCCC(c1ccccc1)c1ccccc1 (centres unmarked) [Example 19, hydrochloride] | = | 5.07 |
